B1: glmS ribozyme (parent)
chain: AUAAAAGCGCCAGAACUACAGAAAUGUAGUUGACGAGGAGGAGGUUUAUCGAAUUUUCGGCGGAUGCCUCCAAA

- Variants of: B1
- PROTOCOL_DETAILS: self-cleavage kobs at 2500 uM GlcN6P; higher = faster cleavage; RNA array
- PARTICULARS: with glucosamine-6-phosphate
Fewer inactive variants are shown than the library holds.
REPORTED_METRIC: self-cleavage kobs at 2500 uM GlcN6P (s⁻¹)
Answers are plain numbers, in s⁻¹.

Examples from the recorded data:
[
  {
    "VARIANT": "U30G U31C U47C G66A",
    "REPORTED_METRIC": "self-cleavage kobs at 2500 uM GlcN6P",
    "UNITS_LABEL": "s⁻¹",
    "TEST_VALUE": "2.71e-05"
  },
  {
    "VARIANT": "A6C A53U",
    "REPORTED_METRIC": "self-cleavage kobs at 2500 uM GlcN6P",
    "UNITS_LABEL": "s⁻¹",
    "TEST_VALUE": "3.64e-05"
  },
  {
    "VARIANT": "A14U U54A",
    "REPORTED_METRIC": "self-cleavage kobs at 2500 uM GlcN6P",
    "UNITS_LABEL": "s⁻¹",
    "TEST_VALUE": 0.00565
  }
]

List reported self-cleavage kobs at 2500 uM GlcN6P for each of these variants:
1. U47G G59U
2. G32U A53C
3. C16G G40C
4. U46G G66U

1. 3.31e-05
2. 0.000105
3. 0.000212
4. 0.000448

List reported self-cleavage kobs at 2500 uM GlcN6P for each of these variants:
1. A12U C16A U56A
2. U45G A53G
3. A6U A53U
4. A52G A64G C68U
5. U31A A39C
6. C68U U69C
7. A39G A52G
8. A12G A39U

1: 0.00102; 2: 0.00535; 3: 0.000114; 4: 6.71e-05; 5: 0.000973; 6: 3.88e-05; 7: 0.00108; 8: 0.000246

List reported self-cleavage kobs at 2500 uM GlcN6P for each of these variants:
1. C8A G37U C70A
2. U49A U54G
3. G29U U47G C50G G63C

1: 0.000331; 2: 4.22e-05; 3: 0.000136
